Every entry's value here was drawn from ChEMBL document CHEMBL1124606.

molecular target: Histamine H1 receptor (Cavia porcellus); experiment: Histamine induced lethality, at 60-min pretreatment time of 0.1 mg/kg p.o. in guinea pigs.; assay type: functional, organism-based; design: dose 0.1 mg/kg; settings: at 0.1 mg/kg
What Survival was measured for each of the following?
I only need the number, in %, no unit after it.

**Query** What measured Survival is associated with CN(C)CCC1(C)CN(C)C(=S)c2cccnc2O1 (stereo unspecified) on Histamine H1 receptor (Cavia porcellus)?
**Result** 40

**Query** What measured Survival is associated with CN1CC(CCN2CCC2)Oc2ncc(Cl)cc2C1=S (stereo unspecified) on Histamine H1 receptor (Cavia porcellus)?
**Result** 100

**Query** What measured Survival is associated with CN1CC(CCN2CCC2)Oc2ccc(Cl)cc2C1=S (stereo unspecified) on Histamine H1 receptor (Cavia porcellus)?
**Result** 40

**Query** What measured Survival is associated with CN1CC(CCN2CCCC2)Oc2ncc(Cl)cc2C1=S (stereo unspecified) on Histamine H1 receptor (Cavia porcellus)?
**Result** 40

**Query** What measured Survival is associated with Cc1nc2c(cc1Cl)C(=S)N(C)CC(CCN(C)C)O2 (stereo unspecified) on Histamine H1 receptor (Cavia porcellus)?
**Result** 67

**Query** What measured Survival is associated with CN1CC(CCN2CCC2)Oc2ncccc2C1=O (stereo unspecified) on Histamine H1 receptor (Cavia porcellus)?
**Result** 67

**Query** What measured Survival is associated with CN1CC(CCN2CCC2)Oc2ncccc2C1=S (stereo unspecified) on Histamine H1 receptor (Cavia porcellus)?
**Result** 100

**Query** What measured Survival is associated with CN(C)CCC1CN(C)C(=S)c2cc(Cl)cnc2O1 (stereo unspecified) on Histamine H1 receptor (Cavia porcellus)?
**Result** 100

**Query** What measured Survival is associated with CN(C)CCC1CN(C)C(=S)c2cc3ccccc3nc2O1 (stereo unspecified) on Histamine H1 receptor (Cavia porcellus)?
**Result** 67

**Query** What measured Survival is associated with CN(C)CCC(c1ccc(Br)cc1)c1ccccn1 (stereo unspecified) on Histamine H1 receptor (Cavia porcellus)?
**Result** 40

**Query** What measured Survival is associated with Cc1ccc2c(n1)OC(CCN(C)C)CN(C)C2=S (stereo unspecified) on Histamine H1 receptor (Cavia porcellus)?
**Result** 80

**Query** What measured Survival is associated with CN1CC(CCN2CCC2)Oc2ncc(Cl)cc2C1=O (stereo unspecified) on Histamine H1 receptor (Cavia porcellus)?
**Result** 100

**Query** What measured Survival is associated with CN(C)CCC1CN(C)C(=S)c2cc(Br)cnc2O1 (stereo unspecified) on Histamine H1 receptor (Cavia porcellus)?
**Result** 100

**Query** What measured Survival is associated with CN(C)CCC1CN(C)C(=S)c2cccnc2O1 (stereo unspecified) on Histamine H1 receptor (Cavia porcellus)?
**Result** 50

**Query** What measured Survival is associated with CN1CC(CCN2CCC2)Oc2ncc(Br)cc2C1=S (stereo unspecified) on Histamine H1 receptor (Cavia porcellus)?
**Result** 60

**Query** What measured Survival is associated with Cc1nc2c(cc1Cl)C(=S)N(C)CC(CCN1CCC1)O2 (stereo unspecified) on Histamine H1 receptor (Cavia porcellus)?
**Result** 67
